Source of measurements: ChEMBL document CHEMBL3507680

test: Human HepG2 cell viability assay in 384 well format; assay type: toxicity, cell-based; parameters: dose 125 nL, time 70.5 hour; concentration not given beside the values; settings: HepG2 cells, read-out: Inhibition
The entries below come with measured cytotoxicity at 70.5 h values attached.
measure: cytotoxicity at 70.5 h (%)

compound: CN(C)c1ncc(-c2ccc(C(N)=O)cc2)c(C2CNCCO2)n1 (stereo not drawn)
units-text: %
reported-result: -4.35
//
compound: CCCc1cncnc1N1CCC(NCc2cc3ccccc3[nH]2)CC1
units-text: %
reported-result: 8.09
//
compound: COc1cccc2c1OCC(C(=O)NC1CCN(S(C)(=O)=O)CC1)C2 (stereo not drawn)
units-text: %
reported-result: 14
//
compound: COc1ccc(CC2(CO)CCN(c3cc(N)ncn3)CC2)cc1
units-text: %
reported-result: -6.39
//
compound: CN(Cc1nc2ccccc2[nH]1)C(=O)CN(C)c1ccc(Cl)cn1
units-text: %
reported-result: 7.7
//
compound: Cc1cccc(CNc2cncc(-n3cccn3)n2)c1
units-text: %
reported-result: -5.29
//
compound: Cc1cc(N(C)CCCn2cccn2)nc(N)n1
units-text: %
reported-result: -12.7
//
compound: O=C(CCCOc1ccccc1F)Nc1cc[nH]n1
units-text: %
reported-result: -6.95
//
compound: Cc1cc(C)n(CC2CN(CC(=O)N3CCNC3=O)CCO2)n1 (stereo not drawn)
units-text: %
reported-result: -1.37
//
compound: CCn1c(CN2CCOC(Cn3cccn3)C2)nc2c(F)cccc21 (stereo not drawn)
units-text: %
reported-result: -3.89
//
compound: CCc1nccn1C1CCCN(C(=O)c2cc(C3CC3)on2)C1 (stereo not drawn)
units-text: %
reported-result: -6.97
//
compound: CN(C)Cc1ccc(C(=O)N2CCCC(n3cccn3)C2)cc1 (stereo not drawn)
units-text: %
reported-result: 8.2
//
compound: c1ccc(CN2CCc3nnc(COc4ccccn4)n3CC2)nc1
units-text: %
reported-result: 13.9
//
compound: COCC(=O)N1CCc2nc(C(=O)N(C)C)sc2CC1
units-text: %
reported-result: 27.3
//
compound: CCn1cnnc1C1CCN(C(=O)c2cnc(C)s2)CC1
units-text: %
reported-result: -12.3
//
compound: O=C(c1cccnc1)N1CCC2(CC1)CC(Oc1ccccc1)CO2 (stereo not drawn)
units-text: %
reported-result: 26.5
//
compound: CCC1(C(=O)O)CCCN(C(=O)c2ccc(N3CCN(C)CC3)cc2)C1 (stereo not drawn)
units-text: %
reported-result: 21.4
//
compound: CCN(C(=O)c1ccccc1I)C1CC(=O)NC1=O (stereo not drawn)
units-text: %
reported-result: 4.4
//
compound: CN(C)C(=O)Cn1c(C2CC2)c(CN2CCC(O)CC2)c2cccnc21
units-text: %
reported-result: 12.5
//
compound: NC(=O)N1CCCN(C2CCCCc3ccccc32)CC1 (stereo not drawn)
units-text: %
reported-result: -1.64
//
compound: CCCn1nc(C(=O)NCCc2nnc3n2CCC3)ccc1=O
units-text: %
reported-result: 1.09
//
compound: CNc1cccc(C2CCCN(C(=O)c3ccn(C)n3)C2)n1 (stereo not drawn)
units-text: %
reported-result: 16.5
//
compound: CCc1noc(CC)c1CNC(=O)Nc1cccc(C(=O)N(C)C)c1
units-text: %
reported-result: -1.22
//
compound: O=C(CN1CCOc2ccccc2C1)NCc1cc2n(n1)CCCNC2
units-text: %
reported-result: -2.45
//
compound: c1ccc(CCN2CCOC3(CCc4ccccc43)C2)nc1 (stereo not drawn)
units-text: %
reported-result: -15.8
//
compound: Cc1nccn1C1CCCN(C(=O)C2=NN(C)C(=O)CC2)C1 (stereo not drawn)
units-text: %
reported-result: 9.33
//
compound: COc1ccc(C(C)NC(=O)Nc2nccs2)cc1OC (stereo not drawn)
units-text: %
reported-result: -8.99
//
compound: CCc1cn[nH]c1C1CCN(c2cc(C)c3ccc(OC)cc3n2)CC1
units-text: %
reported-result: 9.99
//
compound: CN(C)C1CCCN(C(=O)NCCc2cc(F)ccc2F)C1 (stereo not drawn)
units-text: %
reported-result: 23.5
//
compound: CN(C)C(=O)c1cc2c(nc1NCC1CC1)CCNCC2
units-text: %
reported-result: 29.7
//
compound: Cc1oc(-c2nc(C#N)c(N(C)C)o2)cc1S(=O)(=O)N1CCCCCC1
units-text: %
reported-result: 12.8
//
compound: COc1ccc(OC2CCN(Cc3ccn(C)c(=O)c3)CC2)cc1
units-text: %
reported-result: 0.479
//
compound: Fc1cccc(CN2C[C@@H]3COC[C@]3(COCc3ccncc3)C2)c1
units-text: %
reported-result: -1.32
//
compound: O=C(NCc1cccnc1)N1CCC2(CC(=O)N(c3ccsc3)C2)C1 (stereo not drawn)
units-text: %
reported-result: -6.34
//
compound: CC(SCCS(C)(=O)=O)c1nc(Cc2ccccc2)no1 (stereo not drawn)
units-text: %
reported-result: -7.83
//
compound: CCc1ccc(CN(C)c2cc(COC)nc3ccnn23)cc1
units-text: %
reported-result: -2.38
//
compound: CCc1cc(NCCC(F)(F)F)nc(N2CCOCC2)n1
units-text: %
reported-result: -7.87
//
compound: CCn1c(CN2CCCC2)nnc1C1CCN(S(=O)(=O)CC)CC1
units-text: %
reported-result: -2.53
//
compound: CC(=O)N1CCN(C(=O)c2cnc(OC(C)C)c(Cl)c2)CC1
units-text: %
reported-result: -13.6
//
compound: Cc1nnc(CN2CCCC(c3cc(C(N)=O)[nH]n3)C2)o1 (stereo not drawn)
units-text: %
reported-result: -15.2
//
compound: Cc1noc(C)c1NS(=O)(=O)c1cc(C(=O)O)cc(Cl)c1Cl
units-text: %
reported-result: -4.5
//
compound: CCS(=O)(=O)Nc1cnn(Cc2cccc(F)c2)c1
units-text: %
reported-result: -4.79
//
compound: C=C(C)COc1cccc(C(=O)NCCCc2nnn[nH]2)c1
units-text: %
reported-result: -12.4
//
compound: COCCn1ccnc1C1CCN(C(=O)c2cccc(COC)n2)CC1
units-text: %
reported-result: -4.2
//
compound: CS(=O)(=O)Cc1noc(CN2CCN(c3ccccc3Cl)CC2)n1
units-text: %
reported-result: -76.6
//
compound: Cc1nn(C)c(Cl)c1C1CCCN1CC(=O)NCc1ccccn1 (stereo not drawn)
units-text: %
reported-result: -7.66
//
compound: Cn1ccnc1CCNS(=O)(=O)c1ccc(Br)cc1
units-text: %
reported-result: 9.92
//
compound: CN1CCC(c2ncc3c(n2)CCN(C(=O)CC2C=CCC2)C3)CC1 (stereo not drawn)
units-text: %
reported-result: -7.45
